Target: recombinant RSV complex (Human respiratory syncytial virus A, UniProt P28887)
Sequence (P28887 whole entry): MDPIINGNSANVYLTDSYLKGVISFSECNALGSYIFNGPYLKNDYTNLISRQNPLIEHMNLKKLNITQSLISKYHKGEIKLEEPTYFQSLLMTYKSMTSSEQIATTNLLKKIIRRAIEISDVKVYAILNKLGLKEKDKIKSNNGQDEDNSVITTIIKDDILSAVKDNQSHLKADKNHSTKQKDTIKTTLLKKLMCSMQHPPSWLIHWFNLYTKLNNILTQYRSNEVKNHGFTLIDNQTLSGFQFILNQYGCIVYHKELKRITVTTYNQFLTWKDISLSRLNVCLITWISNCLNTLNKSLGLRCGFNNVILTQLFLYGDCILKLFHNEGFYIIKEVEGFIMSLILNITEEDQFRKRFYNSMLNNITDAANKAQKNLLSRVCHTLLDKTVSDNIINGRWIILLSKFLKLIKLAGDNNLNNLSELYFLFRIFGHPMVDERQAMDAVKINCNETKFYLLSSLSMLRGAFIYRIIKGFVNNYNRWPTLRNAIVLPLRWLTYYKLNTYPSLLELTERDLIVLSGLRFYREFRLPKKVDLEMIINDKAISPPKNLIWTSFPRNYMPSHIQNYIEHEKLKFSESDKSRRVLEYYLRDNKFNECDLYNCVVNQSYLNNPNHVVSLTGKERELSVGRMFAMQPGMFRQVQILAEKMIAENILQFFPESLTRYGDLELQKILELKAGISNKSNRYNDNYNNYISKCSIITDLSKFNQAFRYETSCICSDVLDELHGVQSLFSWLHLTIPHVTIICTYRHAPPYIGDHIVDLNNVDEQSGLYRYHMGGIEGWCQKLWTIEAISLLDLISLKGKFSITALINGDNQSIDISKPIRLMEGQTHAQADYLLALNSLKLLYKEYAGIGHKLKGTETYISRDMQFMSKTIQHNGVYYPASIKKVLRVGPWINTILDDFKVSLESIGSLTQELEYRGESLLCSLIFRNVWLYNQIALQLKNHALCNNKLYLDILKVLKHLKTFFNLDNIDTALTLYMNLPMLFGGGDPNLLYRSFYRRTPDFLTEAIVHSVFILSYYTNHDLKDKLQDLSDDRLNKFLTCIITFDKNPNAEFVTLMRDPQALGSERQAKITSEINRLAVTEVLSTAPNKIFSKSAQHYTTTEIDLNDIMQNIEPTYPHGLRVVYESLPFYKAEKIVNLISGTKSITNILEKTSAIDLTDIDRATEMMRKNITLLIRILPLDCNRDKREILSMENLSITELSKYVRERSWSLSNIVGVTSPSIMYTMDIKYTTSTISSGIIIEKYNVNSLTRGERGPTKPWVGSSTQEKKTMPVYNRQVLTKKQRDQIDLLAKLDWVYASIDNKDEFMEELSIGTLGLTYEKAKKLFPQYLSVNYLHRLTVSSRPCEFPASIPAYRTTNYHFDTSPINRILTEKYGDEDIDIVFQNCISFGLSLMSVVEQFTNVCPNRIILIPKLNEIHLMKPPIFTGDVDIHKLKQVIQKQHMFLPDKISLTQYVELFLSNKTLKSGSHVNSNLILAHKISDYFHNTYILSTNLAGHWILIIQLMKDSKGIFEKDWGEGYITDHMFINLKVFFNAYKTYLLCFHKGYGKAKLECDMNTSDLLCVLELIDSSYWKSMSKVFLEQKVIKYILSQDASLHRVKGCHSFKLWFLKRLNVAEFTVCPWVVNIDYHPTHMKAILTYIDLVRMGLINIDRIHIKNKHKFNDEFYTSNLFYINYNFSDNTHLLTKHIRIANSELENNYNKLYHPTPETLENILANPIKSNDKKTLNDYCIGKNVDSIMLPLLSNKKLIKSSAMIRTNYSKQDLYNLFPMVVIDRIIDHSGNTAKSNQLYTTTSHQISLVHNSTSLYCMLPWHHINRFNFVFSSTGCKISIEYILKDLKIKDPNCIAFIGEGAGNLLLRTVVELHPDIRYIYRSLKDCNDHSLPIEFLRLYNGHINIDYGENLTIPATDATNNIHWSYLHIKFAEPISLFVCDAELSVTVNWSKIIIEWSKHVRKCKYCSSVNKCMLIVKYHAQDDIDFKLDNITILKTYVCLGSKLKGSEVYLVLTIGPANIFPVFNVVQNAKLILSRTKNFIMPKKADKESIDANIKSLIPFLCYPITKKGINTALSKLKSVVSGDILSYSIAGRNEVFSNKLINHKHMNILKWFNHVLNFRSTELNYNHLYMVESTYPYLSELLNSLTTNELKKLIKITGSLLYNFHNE
Sequence (P03421 whole entry, further chain): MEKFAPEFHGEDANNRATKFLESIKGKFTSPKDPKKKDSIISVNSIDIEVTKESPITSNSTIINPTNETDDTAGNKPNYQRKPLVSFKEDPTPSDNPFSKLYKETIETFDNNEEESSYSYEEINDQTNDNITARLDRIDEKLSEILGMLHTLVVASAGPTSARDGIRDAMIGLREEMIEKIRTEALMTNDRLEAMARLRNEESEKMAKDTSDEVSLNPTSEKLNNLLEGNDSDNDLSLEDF
Assay: RSV Polymerase Inhibition Assay
Type: biochemical
Listed here are compounds together with their documented IC50.
PARAMETER MEASURED: IC50

COc1cc(C(=O)NCC(C)(O)c2cc3c(c(-c4ccc(F)c(Cl)c4)n2)NCC3)ccc1OCCF (centres unmarked) [Compound 286]; < 10 µM
COc1cc(C(=O)NCC(O)(c2ccc(OC)c(-c3ccc(F)c(Cl)c3)n2)C(F)(F)F)ccc1OC1CC1(F)F (centres unmarked); < 1 µM
CNC(C)(C)c1cc(-c2ccc(F)c(Cl)c2)nc(C(O)(CNC(=O)c2ccc(OCC(N)=O)c(OC)c2)C(F)(F)F)c1 (centres unmarked); < 1 µM
COc1cc(C(=O)NCC(C)(O)c2cccc(-c3ccc(F)c(Cl)c3)c2)ccc1OCCO (centres unmarked); < 100 µM
COc1cc(C(=O)NCC(C)(O)c2ccc(OC)c(-c3ccc(F)c(Cl)c3)n2)ccc1OCS(C)(=O)=O (centres unmarked); < 1 µM
COc1cc(C(=O)NCC(O)(c2cc3c(c(-c4ccc(F)c(Cl)c4)n2)OCC3(C)C)C(F)(F)F)cc2cccnc12 (centres unmarked); < 1 µM
COc1cc(C(=O)NCC(O)(c2cc(C(C)(N)CF)cc(-c3ccc(F)c(Cl)c3)n2)C(F)(F)F)ccc1OCCO (centres unmarked); < 1 µM
COc1cc(C(=O)NCC(C)(O)c2cc(CO)cc(-c3ccc(F)c(Cl)c3)n2)ccc1OCC1CC1 (centres unmarked); < 1 µM
COc1cc(C(=O)NCC(C)(CO)c2ccc(OC)c(-c3ccc(F)c(Cl)c3)n2)ccc1OCCO (centres unmarked); < 10 µM
COc1cc(C(=O)NCC(C)(O)c2cc3c(c(-c4ccc(F)c(Cl)c4)n2)OCC3(C)C)ccc1OCCF (centres unmarked); < 1 µM
COc1cc(C(=O)NCC(O)(c2cc(C(C)(C)N)cc(-c3ccc(F)cc3)n2)C(F)(F)F)cnc1OCCO (centres unmarked); < 1 µM
COc1cc(C(=O)NCC(O)(c2cc3c(c(-c4ccc(F)c(Cl)c4)n2)OCCC3(C)C)C2CC2)ccc1OCCO (centres unmarked); < 1 µM
COc1cc(C(=O)NCC(O)(c2cc(C(C)(C)N)cc(-c3ccc(F)c(Cl)c3)n2)C2CC2)ccc1OC1CC1 (centres unmarked); < 1 µM
COc1cc(C(=O)NCC(O)(c2cc3c(c(-c4ccc(F)cc4)n2)OCC3(C)N)C(F)(F)F)ccc1OC[C@@H](C)O (some centres unmarked); < 1 µM
